These entries and their values trace back to ChEMBL document CHEMBL1800004.

Assay: Cmax in fasted CD-1(Crl) mouse at 2 mg/kg, iv administered as single dose
Type: ADME, organism-based
Parameters: dose 2 mg/kg, route intravenous
Details: in vivo
RECORDED ENDPOINT: Cmax (ng/mL)
The reply should be a number in ng/mL, with the unit left off.

Cmax for C/C(=N\OCCN)c1ccc(Nc2c3ccccc3nc3occc23)cc1.Cl ?
1490

---

Test system: NCI-H460
Experiment: Anticancer activity against human NCI-H460 cells assessed as cell growth at 20 ug/mL after 48 hrs by SRB assay relative to control
Assay type: functional
Conditions: NCI-H460, 48 h, read-out: Activity
Reported growth at 20 µg/mL values for a set of molecules
The reply should be a number in %, with the unit left off.

growth at 20 µg/mL for C/C(=N\OCCN1CCOCC1)c1ccc(Nc2c3ccccc3nc3occc23)cc1 ?
23

---
growth at 20 µg/mL for COc1ccc2c(Nc3ccc(/C(C)=N/OCCCN)cc3)c3c(Cl)coc3nc2c1 ?
8

growth at 20 µg/mL for O=C(O)c1ccc(Nc2c3ccccc3nc3occ(Cl)c23)cc1 ?
81

growth at 20 µg/mL for COc1ccc2c(Nc3ccc(/C(C)=N/OCCN(C)C)cc3)c3c(Cl)coc3nc2c1 ?
-1

growth at 20 µg/mL for COc1ccc2c(Nc3ccc(/C(C)=N/OCCN(C)C)cc3)c3ccoc3nc2c1 ?
-1
